Recorded IC50 values for a group of molecules are listed next.
# Tested on: trachea
# ASSAY SUMMARY: Tracheodilative effect (in vitro), Magnus method, enucleated trachea contracted with LTD4
# TEST CONTEXT: Cavia porcellus; relaxation of enucleated guinea pig trachea contracted with LTD4 3 x 10^-8 M; read-out: pIC50 value LTD4 (converted)

[
  {
    "MOLECULE": "N#Cc1cnn2c3c(c(N)nc12)CCN3C1CCCC1 [Compound 5]",
    "MEASUREMENT UNIT": "µM",
    "IC50": 4.07
  },
  {
    "MOLECULE": "Cn1c(=O)c2[nH]cnc2n(C)c1=O [Theophylline, theophylline, reference compound]",
    "MEASUREMENT UNIT": "µM",
    "IC50": 112
  },
  {
    "MOLECULE": "N#Cc1cnn2c3c(c(N)nc12)CCN3C1CCCCC1 [Compound 6]",
    "MEASUREMENT UNIT": "µM",
    "IC50": 11.2
  },
  {
    "MOLECULE": "CCC(C)N1CCc2c(N)nc3c(C#N)cnn3c21 (stereo not shown) [Compound 7]",
    "MEASUREMENT UNIT": "µM",
    "IC50": 3.72
  }
]
